// values below are reported fold difference in affinity vs original
Biological target: T1, IL-1β (UniProt P01584 117-269)
T1 construct: Antigen immobilised on the Biacore chip
Assay: Biacore, periplasmic extract
Answer with a number only, understood to be in fold.

Consider the reported fold difference in affinity vs original for these binders:
Lab note: measured fold difference in affinity vs original of XPA23 light chain S53F (Fab, V domains shown) VH: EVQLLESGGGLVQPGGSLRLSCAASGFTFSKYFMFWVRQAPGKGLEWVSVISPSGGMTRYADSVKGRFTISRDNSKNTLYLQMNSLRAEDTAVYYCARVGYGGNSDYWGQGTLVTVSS VL: DIQMTQSPSSVSASVGDRLTIICRASQDINRWLAWYQQTPGNAPKLLIHSATFLQSGVPSRFSGSGSGTDFTLTINSLQPEDFATYYCQQADSFPLTFGGGTKVEIK was 1.24

Lab note: measured fold difference in affinity vs original of XPA23 light chain A91H (Fab, V domains shown) VH: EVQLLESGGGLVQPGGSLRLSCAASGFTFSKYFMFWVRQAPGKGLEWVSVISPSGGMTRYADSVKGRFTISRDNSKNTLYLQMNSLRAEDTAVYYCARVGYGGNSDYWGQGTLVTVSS VL: DIQMTQSPSSVSASVGDRLTIICRASQDINRWLAWYQQTPGNAPKLLIHSATSLQSGVPSRFSGSGSGTDFTLTINSLQPEDFATYYCQQHDSFPLTFGGGTKVEIK was 1.12

Lab note: measured fold difference in affinity vs original of XPA23 light chain S53E (Fab, V domains shown) VH: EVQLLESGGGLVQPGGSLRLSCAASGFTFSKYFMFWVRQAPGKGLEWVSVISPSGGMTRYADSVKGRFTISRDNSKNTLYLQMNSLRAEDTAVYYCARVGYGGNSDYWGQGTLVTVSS VL: DIQMTQSPSSVSASVGDRLTIICRASQDINRWLAWYQQTPGNAPKLLIHSATELQSGVPSRFSGSGSGTDFTLTINSLQPEDFATYYCQQADSFPLTFGGGTKVEIK was 1.13

Lab note: measured fold difference in affinity vs original of XPA23 light chain Q27E (Fab, V domains shown) VH: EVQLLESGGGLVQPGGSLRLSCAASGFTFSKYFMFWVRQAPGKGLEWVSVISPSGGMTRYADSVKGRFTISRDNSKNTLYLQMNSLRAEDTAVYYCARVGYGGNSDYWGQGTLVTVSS VL: DIQMTQSPSSVSASVGDRLTIICRASEDINRWLAWYQQTPGNAPKLLIHSATSLQSGVPSRFSGSGSGTDFTLTINSLQPEDFATYYCQQADSFPLTFGGGTKVEIK was 1.08

Lab note: measured fold difference in affinity vs original of XPA23 light chain A51W (Fab, V domains shown) VH: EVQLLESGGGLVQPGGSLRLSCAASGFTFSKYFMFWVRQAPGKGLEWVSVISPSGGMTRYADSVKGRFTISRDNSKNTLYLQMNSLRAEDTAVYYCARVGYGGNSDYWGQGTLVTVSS VL: DIQMTQSPSSVSASVGDRLTIICRASQDINRWLAWYQQTPGNAPKLLIHSWTSLQSGVPSRFSGSGSGTDFTLTINSLQPEDFATYYCQQADSFPLTFGGGTKVEIK was 0.24

Lab note: measured fold difference in affinity vs original of XPA23 light chain Q27A (Fab, V domains shown) VH: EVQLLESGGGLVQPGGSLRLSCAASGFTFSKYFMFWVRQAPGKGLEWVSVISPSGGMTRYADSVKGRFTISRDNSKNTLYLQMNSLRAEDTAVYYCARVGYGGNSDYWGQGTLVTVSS VL: DIQMTQSPSSVSASVGDRLTIICRASADINRWLAWYQQTPGNAPKLLIHSATSLQSGVPSRFSGSGSGTDFTLTINSLQPEDFATYYCQQADSFPLTFGGGTKVEIK was 1.47

Lab note: measured fold difference in affinity vs original of XPA23 light chain A91S (Fab, V domains shown) VH: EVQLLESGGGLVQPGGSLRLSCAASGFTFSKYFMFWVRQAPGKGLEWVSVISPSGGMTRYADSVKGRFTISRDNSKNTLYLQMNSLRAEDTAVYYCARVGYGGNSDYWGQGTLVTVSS VL: DIQMTQSPSSVSASVGDRLTIICRASQDINRWLAWYQQTPGNAPKLLIHSATSLQSGVPSRFSGSGSGTDFTLTINSLQPEDFATYYCQQSDSFPLTFGGGTKVEIK was 0.9

Lab note: measured fold difference in affinity vs original of XPA23 light chain A51V (Fab, V domains shown) VH: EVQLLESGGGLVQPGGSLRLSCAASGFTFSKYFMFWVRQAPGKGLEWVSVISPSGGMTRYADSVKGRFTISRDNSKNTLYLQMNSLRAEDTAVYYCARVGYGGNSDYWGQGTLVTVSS VL: DIQMTQSPSSVSASVGDRLTIICRASQDINRWLAWYQQTPGNAPKLLIHSVTSLQSGVPSRFSGSGSGTDFTLTINSLQPEDFATYYCQQADSFPLTFGGGTKVEIK was 0.31

Lab note: measured fold difference in affinity vs original of XPA23 light chain R31Q (Fab, V domains shown) VH: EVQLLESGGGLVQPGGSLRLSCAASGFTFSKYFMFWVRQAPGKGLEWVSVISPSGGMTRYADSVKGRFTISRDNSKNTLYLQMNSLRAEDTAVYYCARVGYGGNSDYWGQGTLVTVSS VL: DIQMTQSPSSVSASVGDRLTIICRASQDINQWLAWYQQTPGNAPKLLIHSATSLQSGVPSRFSGSGSGTDFTLTINSLQPEDFATYYCQQADSFPLTFGGGTKVEIK was 0.27

Continuing:
Lab note: measured fold difference in affinity vs original of XPA23 light chain Q27I (Fab, V domains shown) VH: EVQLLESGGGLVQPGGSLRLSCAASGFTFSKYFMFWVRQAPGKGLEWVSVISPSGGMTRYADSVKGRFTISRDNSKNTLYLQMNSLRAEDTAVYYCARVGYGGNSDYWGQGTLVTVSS VL: DIQMTQSPSSVSASVGDRLTIICRASIDINRWLAWYQQTPGNAPKLLIHSATSLQSGVPSRFSGSGSGTDFTLTINSLQPEDFATYYCQQADSFPLTFGGGTKVEIK was 0.82

The reported numbers originate from patent US20110118131A1.
